Just for reference, paper PMC6886526 is where these values come from.

Target: StAcrR (Salmonella enterica subsp. enterica serovar Typhimurium, UniProt Q7CR15)
Experiment: Competition FP assay in the presence of Pf
Conditions: IC50, competition FP; 10 μM StAcrR and 100 nM Pf
Below, each of the compounds is paired with its reported pIC50 value.
Please express pIC50 as -log10 of the molar concentration.

Known pIC50 results, listed for orientation:
compound: C[C@]12CC[C@@H]3c4ccc(O)cc4C[C@@H](CCCCCCCCC[S+]([O-])CCCC(F)(F)C(F)(F)F)[C@H]3[C@@H]1CC[C@@H]2O (some centres unmarked)
pIC50: 4.40
--
compound: Cc1cc(N)c2ccccc2[n+]1CCCCCCCCCC[n+]1c(C)cc(N)c2ccccc21 [Dequalinium chloride, dequalinium]
pIC50: 4.65
--
compound: C[C@]12CC[C@H](O)CC1=CC[C@@H]1[C@@H]2CC[C@]2(C)C(=O)CC[C@@H]12
pIC50: 5.27
--
compound: COC1=C(OC)C(=O)C(CCCCCCCCCCO)=C(C)C1=O
pIC50: 5.55

What does the record list as pIC50 for CSc1nc2cc(Cl)c(Oc3cccc(Cl)c3Cl)cc2[nH]1 ?
4.59

----------
Assay read-out Kd; system under study: StAcrR (Salmonella enterica subsp. enterica serovar Typhimurium).
Respond with the bare value in µM.

Known Kd results, listed for orientation:
compound: CC[n+]1c(-c2ccccc2)c2cc(N)ccc2c2ccc(N)cc21 [Et, ethidium]
value observed: 67.3
--
compound: CC/N=c1\cc2oc3cc(NCC)c(C)cc3c(-c3ccccc3C(=O)OCC)c-2cc1C [R6G, rhodamine 6G]
value observed: 43.7

Kindly review the next compound as well.
Request body: readout Kd, system StAcrR (Salmonella enterica subsp. enterica serovar Typhimurium), query Nc1ccc2cc3ccc(N)cc3nc2c1 [Pf, proflavine] . Return the value.
3.9
